- Tested on: PBMCs
- ASSAY: IL-6 and TNF-alpha secretion in PBMCs from three donors (ELISA)
- Format: cell-based, human
- CONDITION NOTES: Homo sapiens, PBMC, 24 h, Donor 3; 24 hours; read-out: TNFa secretion MC50
- Experimental: EC50 values were determined for control and each drug candidate for IL-6 and TNF-alpha secretion. […] The cells were treated with TLR7 agonists for 24 hours in 7 doses. The conditioned media was removed for ELISA analyses for IL-6 and TNF-alpha, and cell survival determined by the XTT method according to the protocol from the supplier. […] Concentrations of IL-6 and TNF-alpha were determined by ELISA from R&D Systems using the Microsoft Excel Software. […]
MEASURED PARAMETER: EC50 (µM)
Dear colleague, please return just the value in µM, with no unit written.

Notebook: pull reported EC50 for PBMCs, entry CC(C)Cn1cnc2c(N)nc3ccccc3c21 [Imiquimod, reference compound] 22.4

###

- System: human PBMCs
- ASSAY: IL-6 secretion in human PBMCs, two batches of Compound A and SC12
- Format: cell-based
- CONDITION NOTES: Donor 1; 24 h, 4 doses; listed as SC12 new 20288
MEASURED PARAMETER: EC50 (µM)
Express the result in µM but write the number alone.

Quick check: EC50 on human PBMCs, item CCCCCCCCCCCC(=O)OCC(COP(=O)(O)OCCNC(=O)c1ccc(Cn2c(=O)[nH]c3c(N)nc(OCCOC)nc32)cc1)OC(=O)CCCCCCCCCCC (stereo not shown) [SC12] ? 1.87

###

- System: whole blood
- ASSAY: Cytokine secretion in human whole blood assay (ELISA)
- Format: cell-based
- CONDITION NOTES: Donor 3; read-out: EC50-IL-10, 24 h Incubation
MEASURED PARAMETER: pEC50
A value of pEC50 is the negative decimal logarithm of a concentration given in moles per litre.

Quick one: pEC50 for CCCCCCCCCCCC(=O)OCC(COP(=O)(O)OCCNC(=O)c1ccc(Cn2c(=O)[nH]c3c(N)nc(OCCOC)nc32)cc1)OC(=O)CCCCCCCCCCC (stereo not shown) [SC12] ? 5.05

###

- ASSAYED TARGET: CYP2C8 (Homo sapiens (Human), UniProt P10632)
- Sequence (P10632 whole entry, looked up): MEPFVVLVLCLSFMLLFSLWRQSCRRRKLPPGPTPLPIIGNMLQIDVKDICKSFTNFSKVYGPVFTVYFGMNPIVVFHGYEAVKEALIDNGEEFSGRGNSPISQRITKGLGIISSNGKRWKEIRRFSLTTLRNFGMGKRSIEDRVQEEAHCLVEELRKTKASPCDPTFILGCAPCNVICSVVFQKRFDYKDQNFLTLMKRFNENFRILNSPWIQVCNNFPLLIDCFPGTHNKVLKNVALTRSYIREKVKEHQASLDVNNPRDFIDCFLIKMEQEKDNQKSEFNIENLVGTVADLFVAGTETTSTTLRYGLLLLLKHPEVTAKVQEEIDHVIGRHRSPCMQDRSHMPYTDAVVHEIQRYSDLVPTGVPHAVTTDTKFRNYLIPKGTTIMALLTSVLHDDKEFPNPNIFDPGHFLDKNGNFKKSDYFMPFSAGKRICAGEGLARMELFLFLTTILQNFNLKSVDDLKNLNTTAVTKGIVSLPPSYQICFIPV
- ASSAY: Fluorescent High Throughput P450 assay, CYP2C8
- Assay type: biochemical
- CONDITION NOTES: substrate DBF; head of Table 31 prints CYP2CB; read-out: CYP2C8 IC50 (Mean ± S.D.)
MEASURED PARAMETER: IC50

Look at this compound and give its reported IC50. CCCCCCCCCCCC(=O)OCC(COP(=O)(O)OCCNC(=O)c1ccc(Cn2c(=O)[nH]c3c(N)nc(OCCOC)nc32)cc1)OC(=O)CCCCCCCCCCC (stereo not shown) > 100 µM
